Target: CK1e (Homo sapiens)
Sequence (P49674 whole entry): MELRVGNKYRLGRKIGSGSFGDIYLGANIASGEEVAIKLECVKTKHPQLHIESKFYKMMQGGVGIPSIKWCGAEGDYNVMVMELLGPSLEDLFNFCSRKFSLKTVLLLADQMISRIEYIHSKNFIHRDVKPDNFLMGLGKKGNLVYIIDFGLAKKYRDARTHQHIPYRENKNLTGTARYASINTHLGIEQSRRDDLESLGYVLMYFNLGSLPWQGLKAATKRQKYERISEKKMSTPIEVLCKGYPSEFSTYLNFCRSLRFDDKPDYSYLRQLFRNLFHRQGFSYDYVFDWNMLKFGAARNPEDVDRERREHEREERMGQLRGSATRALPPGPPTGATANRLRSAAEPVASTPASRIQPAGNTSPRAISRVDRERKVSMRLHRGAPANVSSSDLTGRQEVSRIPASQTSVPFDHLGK
pIC50: −log10 of the molar value.
recordedEndpoint: pIC50

For the record CC(=O)Nc1ccc(C(=O)Nc2sc(Nc3ccccc3)nc2C(N)=O)cc1 [Compound 1] , what value of pIC50 is listed for CK1e (Homo sapiens)?
< 6.52

---

Molecular target: FGFR1 (Homo sapiens, UniProt P11362)
Sequence (P11362 22-822): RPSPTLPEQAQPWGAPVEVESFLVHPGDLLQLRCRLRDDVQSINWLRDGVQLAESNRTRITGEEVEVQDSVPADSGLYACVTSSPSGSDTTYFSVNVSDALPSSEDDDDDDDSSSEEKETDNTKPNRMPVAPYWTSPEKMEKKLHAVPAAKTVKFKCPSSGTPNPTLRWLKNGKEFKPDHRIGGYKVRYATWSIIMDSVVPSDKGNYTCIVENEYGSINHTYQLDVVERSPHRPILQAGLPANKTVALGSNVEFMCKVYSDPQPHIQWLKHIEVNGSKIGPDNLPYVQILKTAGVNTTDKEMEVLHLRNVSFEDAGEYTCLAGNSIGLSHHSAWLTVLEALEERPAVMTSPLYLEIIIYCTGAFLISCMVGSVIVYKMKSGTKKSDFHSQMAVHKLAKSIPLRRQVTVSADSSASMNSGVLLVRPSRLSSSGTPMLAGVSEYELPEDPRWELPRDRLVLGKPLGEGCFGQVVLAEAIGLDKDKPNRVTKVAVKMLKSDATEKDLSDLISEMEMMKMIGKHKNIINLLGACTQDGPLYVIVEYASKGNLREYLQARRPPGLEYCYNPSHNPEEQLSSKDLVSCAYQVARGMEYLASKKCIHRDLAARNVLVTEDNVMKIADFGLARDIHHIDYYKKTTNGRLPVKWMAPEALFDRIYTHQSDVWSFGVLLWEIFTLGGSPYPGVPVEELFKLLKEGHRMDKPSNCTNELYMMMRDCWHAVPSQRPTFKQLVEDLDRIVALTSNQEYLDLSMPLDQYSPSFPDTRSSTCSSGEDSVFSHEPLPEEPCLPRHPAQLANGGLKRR
pIC50: −log10 of the molar value.
recordedEndpoint: pIC50

Record CC(=O)Nc1ccc(C(=O)Nc2sc(Nc3ccccc3)nc2C(N)=O)cc1 [Compound 1] : what is its pIC50 with FGFR1 (Homo sapiens, UniProt P11362)?
< 6.52

---

Target: UniProt:P45984
Sequence (P45984 whole entry): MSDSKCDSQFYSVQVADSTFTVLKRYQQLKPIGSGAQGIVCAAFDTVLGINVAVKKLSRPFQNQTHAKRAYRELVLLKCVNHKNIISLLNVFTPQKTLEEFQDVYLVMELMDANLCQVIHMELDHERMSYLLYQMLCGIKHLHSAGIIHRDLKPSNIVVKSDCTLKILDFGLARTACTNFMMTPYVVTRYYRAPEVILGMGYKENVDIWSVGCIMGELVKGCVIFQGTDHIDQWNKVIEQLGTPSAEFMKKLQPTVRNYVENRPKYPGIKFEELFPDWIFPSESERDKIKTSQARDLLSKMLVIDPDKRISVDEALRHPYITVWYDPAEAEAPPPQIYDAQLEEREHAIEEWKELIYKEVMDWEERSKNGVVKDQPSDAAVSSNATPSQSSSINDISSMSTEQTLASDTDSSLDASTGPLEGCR
pIC50: −log10 of the molar value.
recordedEndpoint: pIC50

Given the compound CC(=O)Nc1ccc(C(=O)Nc2sc(Nc3ccccc3)nc2C(N)=O)cc1 [Compound 1] , what is its reported pIC50?
< 6.52
